# TARGET SYSTEM: Recombinant Human NF-kappaB-Inducing Kinase (NIK/MAP3K14) (Homo sapiens, UniProt Q99558)
# Sequence (Q99558 whole entry): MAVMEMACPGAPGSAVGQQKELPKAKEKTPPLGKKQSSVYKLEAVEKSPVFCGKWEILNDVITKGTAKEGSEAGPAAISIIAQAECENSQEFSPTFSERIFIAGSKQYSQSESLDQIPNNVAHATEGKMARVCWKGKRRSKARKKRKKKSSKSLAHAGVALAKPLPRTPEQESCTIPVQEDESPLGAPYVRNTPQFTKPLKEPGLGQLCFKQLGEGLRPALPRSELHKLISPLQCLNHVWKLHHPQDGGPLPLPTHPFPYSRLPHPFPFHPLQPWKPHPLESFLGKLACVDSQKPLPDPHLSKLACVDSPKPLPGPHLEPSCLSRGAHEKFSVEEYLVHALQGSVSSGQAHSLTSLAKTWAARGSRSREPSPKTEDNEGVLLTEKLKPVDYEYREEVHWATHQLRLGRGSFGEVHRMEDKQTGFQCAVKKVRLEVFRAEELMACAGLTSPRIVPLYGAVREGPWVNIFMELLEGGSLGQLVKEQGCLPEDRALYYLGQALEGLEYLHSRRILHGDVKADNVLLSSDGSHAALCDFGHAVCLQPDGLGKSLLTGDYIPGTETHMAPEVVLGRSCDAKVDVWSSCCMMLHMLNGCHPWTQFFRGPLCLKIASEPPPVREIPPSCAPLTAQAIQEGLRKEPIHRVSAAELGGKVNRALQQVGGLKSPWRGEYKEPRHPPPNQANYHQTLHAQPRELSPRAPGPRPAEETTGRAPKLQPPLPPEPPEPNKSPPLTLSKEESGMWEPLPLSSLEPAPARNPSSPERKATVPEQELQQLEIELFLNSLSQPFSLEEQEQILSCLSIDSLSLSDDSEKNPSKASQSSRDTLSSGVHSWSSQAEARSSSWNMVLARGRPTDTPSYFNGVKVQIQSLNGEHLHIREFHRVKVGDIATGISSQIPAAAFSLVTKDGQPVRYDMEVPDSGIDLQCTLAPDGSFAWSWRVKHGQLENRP
# PROTOCOL TEXT: Inhibition of auto-phosphorylation of recombinant human NIK/MAP3K14 activity (AlphaScreen)
# Assay type: biochemical
# TEST SETTINGS: 5 μM ATP, 1 nM NIK, average if tested more than once
# Method: Assay 1: Inhibition of Auto-Phosphorylation of Recombinant Human NF-kappaB-Inducing Kinase (NIK/MAP3K14) Activity (AlphaScreen™) NIK/MAP3K14 auto-phosphorylation activity was measured using the AlphaScreen™ (αscreen) format (Perkin Elmer). […] Protein A Acceptor and Glutathione-Donor beads were added before reading using an EnVision Multilabel Plate Reader (Perkin Elmer). […] IC50's were determined by fitting a sigmoidal curve to % inhibition of control versus Log10 compound concentration.
pIC50: −log10 of the molar value.
MEASURED PROPERTY: pIC50

Examples with their reported pIC50 follow.
1) CN1CC[C@@](O)(c2cccc(-c3nc(-c4ccnc(NCc5ccnn5C)n4)cs3)c2)C1=O: > 7.00
2) CC(Nc1nccc(-c2csc(-c3cccc([C@]4(O)CCN(C)C4=O)c3)n2)n1)c1ccnn1C (some centres unmarked): > 7.00
3) COCCn1ccc(Nc2nccc(-c3csc(-c4cccc([C@]5(O)CCN(C)C5=O)c4)n3)n2)n1: > 7.00
4) Cc1cnc(Nc2ccn(C)n2)nc1-c1csc(-c2cccc([C@]3(O)CCN(C)C3=O)c2)n1: 6.30 to 7.00
5) CN1CC[C@@](O)(c2cccc(-c3nc(-c4ccnc(Nc5ccnn5CC(F)F)n4)cs3)c2)C1=O: 6.30 to 7.00
6) COCCn1cc(Nc2nccc(-c3csc(-c4cccc([C@]5(O)CCN(C)C5=O)c4)n3)n2)cn1: > 7.00

Form field: reported pIC50 of "CN1CC[C@@](O)(c2cccc(-c3nc(-c4ccnc(NCCc5cn(C)cn5)n4)cs3)c2)C1=O"
< 6.30

Record request: pIC50 value, item "CN1CC[C@@](O)(c2cccc(-c3nc(-c4ccnc(NCc5ccncn5)n4)cs3)c2)C1=O"
6.30 to 7.00

====

# TARGET SYSTEM: Recombinant Human NF-kappaB-Inducing Kinase (NIK/MAP3K14) (Homo sapiens)
# PROTOCOL TEXT: Inhibition of auto-phosphorylation of recombinant human NIK/MAP3K14 activity (AlphaScreen)
# TEST SETTINGS: 5 μM ATP, 1 nM NIK, average if tested more than once
MEASURED PROPERTY: IC50

Use these answered entries as a reference point.
1. Cc1cc(Nc2nccc(-c3csc(-c4cccc([C@]5(O)CCN(C)C5=O)c4)n3)n2)ccn1: < 100 nM
2. CN1CC[C@@](O)(c2cccc(-c3nc(-c4ccnc(NC5CCC(F)(F)CC5)n4)cs3)c2)C1=O: < 100 nM
3. CN1CC[C@@](O)(c2cccc(-c3nc(-c4ccnc(Nc5cc(C(F)(F)F)nn5C)n4)cs3)c2)C1=O: < 100 nM
4. CN1CC[C@@](O)(c2cccc(-c3csc(-c4ccnc(Nc5cnn(C)c5)n4)n3)c2)C1=O: < 100 nM
5. CN1CC[C@@](O)(c2cccc(-c3nc(-c4ccnc(Nc5ccn(C(F)(F)F)n5)n4)cs3)c2)C1=O: < 100 nM
6. CN1CC[C@@](O)(c2cccc(-c3csc(-c4ccnc(NC5COC5)n4)n3)c2)C1=O: < 100 nM
7. Cc1cccc(CNc2nccc(-c3csc(-c4cccc([C@]5(O)CCN(C)C5=O)c4)n3)n2)n1: < 100 nM
8. CN1CC[C@@](O)(c2cccc(-c3nc(-c4ccnc(Nc5ccon5)n4)cs3)c2)C1=O: < 100 nM

Give the measured IC50 of "CN1CC[C@@](O)(c2cccc(-c3nc(-c4ccnc(NCCc5cnn(C)c5)n4)cs3)c2)C1=O" .
< 100 nM

Form field: reported IC50 of "CN1CC[C@@](O)(c2cccc(-c3nc(-c4ccnc(Nc5ccn(CCO)n5)n4)cs3)c2)C1=O"
< 100 nM

# get_value(readout='IC50', item= "COCCCNc1nccc(-c2csc(-c3cccc([C@]4(O)CCN(C)C4=O)c3)n2)n1" )
100 to 500 nM

Can you share its IC50? I mean this compound: "CN1CC[C@@](O)(c2cccc(-c3nc(-c4ccnc(N[C@H]5CC[C@H](O)C5)n4)cs3)c2)C1=O"
100 to 500 nM

Name the recorded IC50 for "Cc1cc(Nc2nccc(-c3nc(-c4cccc([C@]5(O)CCN(C)C5=O)c4)cs3)n2)n(C)n1" .
100 to 500 nM

Recorded IC50 of "CN1CC[C@@](O)(c2cccc(-c3nc(-c4ccnc(Nc5cn6ccccc6n5)n4)cs3)c2)C1=O" , please.
> 501 nM

Give the measured IC50 of "Cc1ccc(CNc2nccc(-c3csc(-c4cccc([C@]5(O)CCN(C)C5=O)c4)n3)n2)nc1" .
< 100 nM

What IC50 value was documented for this compound, "CN1CC[C@@](O)(c2cccc(-c3nc(-c4ccnc(NC5(c6ccccn6)CC5)n4)cs3)c2)C1=O" ?
100 to 500 nM

Can you look up the measured IC50 of "CN1CC[C@@](O)(c2cccc(-c3nc(-c4ccnc(Nc5cnc6ccc(F)cn56)n4)cs3)c2)C1=O" for me?
> 501 nM

Can you look up the measured IC50 of "CN1CC[C@@](O)(c2cccc(-c3nc(-c4ccnc(Nc5cn(C)nc5OC5CCC5)n4)cs3)c2)C1=O" for me?
< 100 nM

Query (compound): "CN1CC[C@@](O)(c2cccc(-c3csc(-c4ccnc(Nc5ccn(CC6CC6)n5)n4)n3)c2)C1=O" ; field requested: IC50
> 501 nM

Looking for the measured IC50 of "CN1CC[C@@](O)(c2cccc(-c3nc(-c4ccnc(Nc5ccnn5C5COC5)n4)cs3)c2)C1=O" , can you help?
< 100 nM

# query: IC50 of entry "CN1CC[C@@](O)(c2cccc(-n3ccc(-c4ccnc(Nc5ccn(C)n5)n4)n3)c2)C1=O"
< 100 nM

So what does the record say about IC50 for "CN1CC[C@@](O)(c2cccc(-c3nc(-c4ccnc(NCCNS(C)(=O)=O)n4)cs3)c2)C1=O" ?
< 100 nM
